test system: Homo sapiens; experiment: Tmax in healthy human treated with [14C]almorexant at 200 mg, po dosed as single dose; assay type: ADME, organism-based; details: in vivo
Endpoint: Tmax (min)

Worked cases, Tmax given:
CNC(=O)[C@@H](c1ccccc1)N1CCc2cc(O)c(OC)cc2[C@@H]1CCc1ccc(C(F)(F)F)cc1; 48
CNC(=O)[C@@H](c1ccccc1)[n+]1ccc2cc(OC)c(OC)cc2c1CCc1ccc(C(F)(F)F)cc1; 54

P: CNC(=O)[C@@H](c1ccccc1)N1CCc2cc(OC)c(O)cc2[C@@H]1CCc1ccc(C(F)(F)F)cc1
Q: COc1cc2c(cc1OC)[C@H](CCc1ccc(C(F)(F)F)cc1)NCC2
Would you let me know which has the greater Tmax value, P or Q ? Bench note: the answer is the label of the chosen record.
Q

###

assay: Half life in healthy human at 200 mg, po dosed as single dose; assay type: ADME, organism-based; conditions: in vivo
Endpoint: half-life (h)
Provide only the numeric value, understood in h.

I'd like to know its half-life. The compound in question is CNC(=O)[C@@H](c1ccccc1)N1CCc2cc(OC)c(OC)cc2[14C@@H]1CCc1ccc(C(F)(F)F)cc1
17.8

###

experiment: Absolute bioavailability in po dosed healthy human; format: ADME, organism-based; conditions: in vivo
Endpoint: bioavailability (%)
Please respond with the number in % and leave the unit unwritten.

bioavailability lookup needed for CNC(=O)[C@@H](c1ccccc1)N1CCc2cc(OC)c(OC)cc2[C@@H]1CCc1ccc(C(F)(F)F)cc1 , thanks.
11.4

###

test: Clearance in po dosed healthy human; assay type: ADME, organism-based; details: in vivo
Endpoint: CL/F (mL/min)
Expressed in mL/min, but write only the number.

# lookup: CL/F of CNC(=O)[C@@H](c1ccccc1)N1CCc2cc(OC)c(OC)cc2[C@@H]1CCc1ccc(C(F)(F)F)cc1
717

###

test: Terminal half life in po dosed healthy human; type: ADME, organism-based; conditions: in vivo, read-out: beta t1/2 (converted)
Endpoint: half-life (h)
Numbers only; they are read as h.

# query: half-life of entry CNC(=O)[C@@H](c1ccccc1)N1CCc2cc(OC)c(OC)cc2[C@@H]1CCc1ccc(C(F)(F)F)cc1
17.8

###

assay: Tmax in healthy human at 200 mg, po dosed as single dose; assay type: ADME, organism-based; settings: in vivo
Endpoint: Tmax (h)

COc1cc2c(cc1OC)[C@H](CCc1ccc(C(F)(F)F)cc1)NC[C@H]2O (racemic); 1.6

1: CNC(=O)[C@@H](c1ccccc1)N1CCc2cc(OC)c(OC)cc2[14C@@H]1CCc1ccc(C(F)(F)F)cc1
2: COc1cc2c(cc1OC)[C@H](CC(O)c1ccc(C(F)(F)F)cc1)N([C@@H](C(N)=O)c1ccccc1)CC2 (stereo partly drawn)
Smaller Tmax value, 1 vs 2 ? // output: label of the selected item
1
(1: 0.8 h, 2: 1.6 h)

###

test system: Homo sapiens; test: Half life in healthy human treated with [14C]almorexant at 200 mg, po dosed as single dose; type: ADME, organism-based; details: in vivo
Endpoint: t1/2 (h)

CNC(=O)[C@@H](c1ccccc1)N1CCc2cc(OC)c(O)cc2[C@@H]1CCc1ccc(C(F)(F)F)cc1; 21.7
CNC(=O)[C@@H](c1ccccc1)N1CCc2cc(O)c(OC)cc2[C@@H]1CCc1ccc(C(F)(F)F)cc1; 22.1

I: CNC(=O)[C@@H](c1ccccc1)[n+]1ccc2cc(OC)c(OC)cc2c1CCc1ccc(C(F)(F)F)cc1
II: COc1cc2c(cc1OC)[C@H](CCc1ccc(C(F)(F)F)cc1)NCC2
Lower value of t1/2 belongs to which: I or II ? Choose, then provide that item's label.
II
(II: 10.4 h, I: 26.3 h)

###

assay: AUC (0 to infinity) in healthy human at 200 mg, po dosed as single dose; assay type: ADME, organism-based; parameters: dose 200 mg, route oral, time infinity; conditions: plasma
Endpoint: AUC(0-inf) (ng·h/mL)
Give just the numeric value; ng·h/mL need not be written.

For the molecule shown here, CNC(=O)[C@@H](c1ccccc1)N1CCc2cc(OC)c(OC)cc2[14C@@H]1CCc1ccc(C(F)(F)F)cc1 , give the reported AUC(0-inf).
262
